biological target: Potassium voltage-gated channel subfamily KQT member 2 (Rattus norvegicus) (UniProt O88943); experiment: KCNQ2 potentiation in CHO cells – cell-based, FluxOR thallium flux, counter-screen for hERG block protector project, confirmation (AID 1942); conditions: FluxOR thallium flux fluorescence, at 10 µM, stronger effect = higher value;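 note: normalized value minus buffer-control mean plus three SD of buffer wells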
Sequence (O88943 whole entry, looked up): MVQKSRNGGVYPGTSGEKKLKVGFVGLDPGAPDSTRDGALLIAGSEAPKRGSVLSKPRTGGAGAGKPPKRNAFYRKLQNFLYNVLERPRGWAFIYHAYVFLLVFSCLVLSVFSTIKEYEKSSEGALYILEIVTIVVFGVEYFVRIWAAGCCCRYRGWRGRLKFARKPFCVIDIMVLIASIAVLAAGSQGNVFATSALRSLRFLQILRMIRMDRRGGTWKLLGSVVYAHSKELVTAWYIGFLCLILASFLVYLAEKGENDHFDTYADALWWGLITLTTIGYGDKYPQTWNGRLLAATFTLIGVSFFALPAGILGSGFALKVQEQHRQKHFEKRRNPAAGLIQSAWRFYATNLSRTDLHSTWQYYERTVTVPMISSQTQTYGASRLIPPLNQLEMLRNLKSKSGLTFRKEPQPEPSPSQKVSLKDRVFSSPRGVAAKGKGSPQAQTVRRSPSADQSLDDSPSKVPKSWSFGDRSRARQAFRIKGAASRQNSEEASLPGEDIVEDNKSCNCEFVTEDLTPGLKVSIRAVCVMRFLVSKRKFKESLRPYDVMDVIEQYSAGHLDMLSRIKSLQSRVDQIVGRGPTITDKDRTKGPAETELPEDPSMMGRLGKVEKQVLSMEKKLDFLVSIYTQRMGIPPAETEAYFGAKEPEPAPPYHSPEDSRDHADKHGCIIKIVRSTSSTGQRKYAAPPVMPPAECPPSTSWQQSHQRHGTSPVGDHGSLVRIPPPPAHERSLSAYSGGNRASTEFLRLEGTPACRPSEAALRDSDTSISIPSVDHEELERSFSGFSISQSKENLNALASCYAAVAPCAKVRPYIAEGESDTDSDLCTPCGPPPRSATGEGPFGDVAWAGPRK
Among all 2,400 compounds or so, about 580 (24%) were called active. Not all results are given here.
MEASURED_PROPERTY: activity change, less the hit threshold (%)
Numbers only, in %.

Consider the following illustrative entries.
{"columns": ["COMPOUND", "UNIT_DESCRIPTOR", "activity change, less the hit threshold"],
 "data": [
  ["Cc1nn(-c2ccc(Cl)cc2)c2sc(C(=O)c3c(N)n(C)c(=O)n(C)c3=O)cc12", "%", -14.1],
  ["CCN(CC)c1ccc(/C=c2\\sc3nnc(-c4ccccc4Cl)n3c2=O)cc1", "%", -31.7],
  ["O=C(COC(=O)c1cc(NS(=O)(=O)c2cccs2)ccc1O)Nc1cc(Cl)ccc1Cl", "%", -5.6],
  ["CCOC(=O)c1c(NS(=O)(=O)c2ccc(Br)cc2)sc2c1CCC2", "%", 5.6],
  ["COC(=O)CSc1nc2c(c(-c3ccc(C)o3)c1C#N)CCCC2", "%", 7.4],
  ["COc1ccc(N(CC(=O)NCc2cccnc2)S(=O)(=O)c2ccccc2[N+](=O)[O-])c(OC)c1", "%", -23.8],
  ["COC(=O)CSc1nc(N2CCCCC2)c2c(c1C#N)CCCC2", "%", -6.4],
  ["CCCCn1nnc(NC(=O)c2ccc(-c3cccc([N+](=O)[O-])c3)o2)n1", "%", -21.1]
]}

Could I get activity change, less the hit threshold for every one of these entries?
1. N#CC(=C1SC=CS1)c1nc(-c2ccccc2)cs1
2. COC(=O)CCn1[nH]c(=O)c2ccccc2c1=O

Ans.
-21.5
-15.8

---

Please provide measured activity change, less the hit threshold for the entries that follow.
biological target: Potassium voltage-gated channel subfamily KQT member 2 (Rattus norvegicus) (UniProt O88943); test: KCNQ2 potentiation in CHO cells – cell-based, FluxOR thallium flux, counter-screen for hERG block protector project, confirmation (AID 1942); conditions: FluxOR thallium flux fluorescence, at 10 µM, stronger effect = higher value;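 note: normalized value minus buffer-control mean plus three SD of buffer wells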
The campaign covered roughly 2,400 compounds. About 580 (24%) were called active. A selection follows.

{"columns": ["COMPOUND", "activity change, less the hit threshold"],
 "data": [
  ["O=C1OCCC1Sc1nc2ccccc2c(=O)n1Cc1ccc(F)cc1 (stereo unspecified)", "-2% (inactive)"],
  ["C=CCn1c(=S)[nH]c2sc3c(c2c1=O)CCCC3", "46.1% (active)"],
  ["CCOC(=O)c1c(C=O)c(C)n(Cc2ccccc2)c1C", "-14.5% (inactive)"],
  ["CCOC(=O)c1c(-c2ccc(C)o2)csc1NC(=S)NC(=O)N(C)C", "24.3% (active)"],
  ["O=C(COC(=O)c1cc(Br)ccc1O)Nc1cccnc1Cl", "-19.3% (inactive)"]
]}

Please look at the items below and tell me activity change, less the hit threshold for each one, in order.
1. COc1ccc(NC(=O)C2CCN(S(=O)(=O)c3cn(C)nc3C)CC2)cc1
2. CCNC(=S)Nc1scc(-c2ccccc2)c1C(=O)OCC
3. O=C(COC(=O)/C=C/c1ccc2c(c1)OCO2)NC1CC1

Ans.
1: -13.2% (inactive); 2: 10.6% (active); 3: -11.4% (inactive)

Could I get activity change, less the hit threshold for every one of these entries?
1. COc1ccccc1C(=O)NNC(=O)C(=O)Nc1ccc(C)cc1
2. COc1ccccc1C(=O)COC(=O)c1ccc(-n2cnnn2)cc1
3. CCOC(=O)CN1C(=O)SC(Nc2ccc(C)cc2)C1=O (stereo unspecified)

Ans.
["132% (active)", "-14.7% (inactive)", "-7% (inactive)"]

Each recorded value in this set is attributed to PubChem BioAssay AID1942.
